# Target Entity: hα7-wt nAChR (Homo sapiens, UniProt P36544)
# Sequence (P36544 23-502): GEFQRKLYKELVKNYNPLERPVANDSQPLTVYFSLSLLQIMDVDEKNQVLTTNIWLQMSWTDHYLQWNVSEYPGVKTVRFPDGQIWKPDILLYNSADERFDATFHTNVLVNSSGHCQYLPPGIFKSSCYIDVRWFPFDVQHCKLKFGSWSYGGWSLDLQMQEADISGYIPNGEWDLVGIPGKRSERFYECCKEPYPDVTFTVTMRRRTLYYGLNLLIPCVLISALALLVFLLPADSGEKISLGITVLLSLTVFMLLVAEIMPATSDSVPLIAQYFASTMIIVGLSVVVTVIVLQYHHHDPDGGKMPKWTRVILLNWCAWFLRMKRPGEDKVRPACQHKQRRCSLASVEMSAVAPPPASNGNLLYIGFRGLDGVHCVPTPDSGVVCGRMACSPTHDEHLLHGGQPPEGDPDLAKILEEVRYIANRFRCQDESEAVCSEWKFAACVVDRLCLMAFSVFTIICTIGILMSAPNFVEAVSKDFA
# Experimental Details: Ca2+ flux imaging (FDSS): potentiation of the choline response
# Type: cell-based
# Settings: Ca2+ assay as described in D.1; potentiation of choline response, hα7-wt nAChR; read-out: Potency (pEC50) (converted)
Measurement Kind: log10 of EC50 (log10 of the value in nM)
Values are log10 of EC50 in nM.

[
  {
    "Molecule": "CC[C@H](O)Cc1cc(Nc2cc(F)c(F)c(F)c2)nn1-c1ccnc(C)c1 [Compound 20]",
    "Target Entity": "hα7-wt nAChR (Homo sapiens, UniProt P36544)",
    "Measurement Kind": "log10 of EC50",
    "Obs Value": 2.93
  },
  {
    "Molecule": "CCNC(=O)Cc1cc(Nc2cccc(Cl)c2F)nn1-c1cc(C)nc(C)c1 [Compound 75]",
    "Target Entity": "hα7-wt nAChR (Homo sapiens, UniProt P36544)",
    "Measurement Kind": "log10 of EC50",
    "Obs Value": 2.57
  },
  {
    "Molecule": "COc1cc(Nc2cc(CC(=O)NC3CCC3)n(-c3ccnc(C)c3)n2)cc(C(F)(F)F)c1 [Compound 48]",
    "Target Entity": "hα7-wt nAChR (Homo sapiens, UniProt P36544)",
    "Measurement Kind": "log10 of EC50",
    "Obs Value": 1.90
  },
  {
    "Molecule": "Cc1cc(-n2nc(Nc3ccc4c(c3)OC(F)(F)O4)cc2CC(=O)NCC2CC2)ccn1 [Compound 101]",
    "Target Entity": "hα7-wt nAChR (Homo sapiens, UniProt P36544)",
    "Measurement Kind": "log10 of EC50",
    "Obs Value": 2.78
  },
  {
    "Molecule": "Cc1cc(-n2nc(Nc3cccc(OC(F)(F)F)c3)cc2CC#N)ccn1 [Compound 107]",
    "Target Entity": "hα7-wt nAChR (Homo sapiens, UniProt P36544)",
    "Measurement Kind": "log10 of EC50",
    "Obs Value": 3.45
  },
  {
    "Molecule": "Cc1cc(-n2nc(Nc3cccc(Cl)c3F)cc2CC(=O)NC2CC2)cc(C)n1 [Compound 78]",
    "Target Entity": "hα7-wt nAChR (Homo sapiens, UniProt P36544)",
    "Measurement Kind": "log10 of EC50",
    "Obs Value": 2.61
  },
  {
    "Molecule": "COc1cc(Cl)cc(Nc2cc(CC(=O)NCC3CC3)n(-c3ccnc(C)c3)n2)c1 [Compound 81]",
    "Target Entity": "hα7-wt nAChR (Homo sapiens, UniProt P36544)",
    "Measurement Kind": "log10 of EC50",
    "Obs Value": 2.17
  },
  {
    "Molecule": "COC(=O)Cc1cc(Nc2cccc(OC(F)(F)F)c2)nn1-c1ccnc(C)c1 [Compound 109]",
    "Target Entity": "hα7-wt nAChR (Homo sapiens, UniProt P36544)",
    "Measurement Kind": "log10 of EC50",
    "Obs Value": 3.30
  }
]

Hi team, please reply with log10 of EC50 for each item in this list.
1. CNC(=O)Cc1cc(Nc2cccc(OC(F)(F)F)c2)nn1-c1ccnc(C)c1 [Compound 111]
2. Cc1cc(-n2nc(Nc3ccc4c(c3)OC(F)(F)O4)cc2CCCO)ccn1 [Compound 92]

1. 3.36
2. 3.37

Fill in reported log10 of EC50 for this entry: CC[C@H](O)Cc1cc(Nc2ccc3c(c2)OC(F)(F)O3)nn1-c1ccnc(C)c1 [Compound 93]
3.23
